Measured values drawn from patent US10125356B2 for this set.

target: AMRE enzyme (Nα-acyl-glutamine-aminoacylase) (Corynebacterium striatum); construct: made in house; experiment: Inhibition of AMRE-catalysed release of free NH2 groups from N-Lauroyl-glutamine; assay type: biochemical; conditions: test compound 31.25 microM
Sequence (Q8GGD4 whole entry): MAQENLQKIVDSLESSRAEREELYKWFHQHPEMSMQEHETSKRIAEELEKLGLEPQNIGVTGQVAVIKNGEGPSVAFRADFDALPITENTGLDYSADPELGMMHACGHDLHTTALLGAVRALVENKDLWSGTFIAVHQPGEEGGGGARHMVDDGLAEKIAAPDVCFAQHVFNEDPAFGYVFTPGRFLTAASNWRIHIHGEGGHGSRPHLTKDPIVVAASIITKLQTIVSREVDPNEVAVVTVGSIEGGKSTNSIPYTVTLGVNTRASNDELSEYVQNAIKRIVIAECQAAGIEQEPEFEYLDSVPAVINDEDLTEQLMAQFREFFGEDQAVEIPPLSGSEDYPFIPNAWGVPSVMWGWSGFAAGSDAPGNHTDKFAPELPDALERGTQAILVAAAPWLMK
endpoint: Inhibition of release of free NH2 groups from N-Lauroyl-glutamine (catalyzed by AMRE) (% inhibition)
Could you give me the number in % inhibition? Just the number is fine.

Worked examples, 4 molecules total:
inputsmiles=O=C(O)CSCCSCC(=O)O target="AMRE enzyme (Nα-acyl-glutamine-aminoacylase) (Corynebacterium striatum)" measuredvalue=12.7
inputsmiles=O=C(O)CN(CCN(CC(=O)O)CC(=O)O)CC(=O)O target="AMRE enzyme (Nα-acyl-glutamine-aminoacylase) (Corynebacterium striatum)" measuredvalue=59.8
inputsmiles=O=C(O)c1cccc(C(=O)O)n1 target="AMRE enzyme (Nα-acyl-glutamine-aminoacylase) (Corynebacterium striatum)" measuredvalue=52.0
inputsmiles=O=C(O)CNCCNCC(=O)O target="AMRE enzyme (Nα-acyl-glutamine-aminoacylase) (Corynebacterium striatum)" measuredvalue=7.2

Okay, next one:
[ask] I have this molecule here, c1cnc2c(c1)ccc1cccnc12 , and I need its recorded Inhibition of release of free NH2 groups from N-Lauroyl-glutamine (catalyzed by AMRE).
[reply] 81.8
